Ref: patent EP3154958B1

Recorded pIC50 for the following compounds
# experimental-system: PI3Kγ (Homo sapiens)
# Construct: made in house
# Sequence (P48736 whole entry): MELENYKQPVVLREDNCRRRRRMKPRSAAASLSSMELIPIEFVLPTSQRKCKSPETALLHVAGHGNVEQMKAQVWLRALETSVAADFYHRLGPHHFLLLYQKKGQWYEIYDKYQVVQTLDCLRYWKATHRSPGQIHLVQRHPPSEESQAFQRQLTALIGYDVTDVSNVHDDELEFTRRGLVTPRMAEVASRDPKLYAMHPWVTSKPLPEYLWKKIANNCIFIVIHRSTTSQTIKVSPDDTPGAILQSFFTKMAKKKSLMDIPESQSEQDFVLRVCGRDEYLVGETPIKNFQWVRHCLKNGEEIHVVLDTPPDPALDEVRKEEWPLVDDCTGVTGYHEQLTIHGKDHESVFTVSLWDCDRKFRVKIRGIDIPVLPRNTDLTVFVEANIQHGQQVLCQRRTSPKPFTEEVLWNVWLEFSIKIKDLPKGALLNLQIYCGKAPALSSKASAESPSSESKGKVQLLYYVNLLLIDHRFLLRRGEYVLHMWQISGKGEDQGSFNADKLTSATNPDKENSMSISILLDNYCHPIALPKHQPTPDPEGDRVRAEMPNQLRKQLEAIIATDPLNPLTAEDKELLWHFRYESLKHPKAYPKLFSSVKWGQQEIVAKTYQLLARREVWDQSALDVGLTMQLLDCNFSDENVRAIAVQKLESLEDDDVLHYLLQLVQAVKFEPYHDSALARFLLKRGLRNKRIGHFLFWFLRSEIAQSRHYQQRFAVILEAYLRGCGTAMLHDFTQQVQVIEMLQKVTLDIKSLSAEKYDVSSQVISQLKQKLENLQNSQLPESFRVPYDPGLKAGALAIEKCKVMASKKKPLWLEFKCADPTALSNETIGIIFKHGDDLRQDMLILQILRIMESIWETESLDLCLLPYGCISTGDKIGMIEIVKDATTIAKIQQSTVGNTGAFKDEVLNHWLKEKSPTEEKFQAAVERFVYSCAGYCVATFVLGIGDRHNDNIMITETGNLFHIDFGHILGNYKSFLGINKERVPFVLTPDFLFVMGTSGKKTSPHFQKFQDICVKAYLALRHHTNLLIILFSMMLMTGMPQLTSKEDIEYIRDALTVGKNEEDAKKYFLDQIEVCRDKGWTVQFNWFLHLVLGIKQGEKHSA
# Sequence (Q8WYR1 whole entry partner): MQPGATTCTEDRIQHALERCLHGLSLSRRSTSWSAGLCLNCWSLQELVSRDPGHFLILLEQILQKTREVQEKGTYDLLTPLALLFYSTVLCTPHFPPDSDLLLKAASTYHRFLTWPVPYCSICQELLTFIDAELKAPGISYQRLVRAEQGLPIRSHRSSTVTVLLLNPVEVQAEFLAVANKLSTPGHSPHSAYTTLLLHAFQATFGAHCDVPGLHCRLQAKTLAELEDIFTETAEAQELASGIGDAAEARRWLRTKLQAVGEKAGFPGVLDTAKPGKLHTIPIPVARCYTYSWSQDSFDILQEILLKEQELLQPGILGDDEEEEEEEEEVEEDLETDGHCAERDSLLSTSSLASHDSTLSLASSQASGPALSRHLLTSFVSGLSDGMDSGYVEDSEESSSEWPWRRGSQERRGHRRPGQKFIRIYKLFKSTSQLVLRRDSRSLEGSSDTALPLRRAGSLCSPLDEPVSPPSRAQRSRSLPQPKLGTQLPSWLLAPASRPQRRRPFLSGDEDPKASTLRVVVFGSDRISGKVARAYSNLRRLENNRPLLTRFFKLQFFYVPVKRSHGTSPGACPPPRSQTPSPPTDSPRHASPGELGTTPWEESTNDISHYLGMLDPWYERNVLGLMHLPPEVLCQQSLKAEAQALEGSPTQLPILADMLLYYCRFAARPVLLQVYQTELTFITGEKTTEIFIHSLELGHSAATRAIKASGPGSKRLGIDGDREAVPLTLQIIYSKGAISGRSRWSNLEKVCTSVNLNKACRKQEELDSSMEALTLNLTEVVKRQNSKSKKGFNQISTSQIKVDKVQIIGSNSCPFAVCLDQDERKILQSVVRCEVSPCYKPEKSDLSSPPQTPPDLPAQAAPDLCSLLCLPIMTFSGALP
# method-notes: TR-FRET enzymatic activity assay, PI3Kγ
# Type: biochemical
# assay-setup: recombinant heterodimeric PI3Kγ 2 nM, 2× Km ATP, 30 minutes at 25°C
pIC50: −log10 of the molar value.

[
  {
    "compound": "C[C@H](Nc1nc(N)nc(N)c1C#N)c1nc2cccc(Cl)c2c(=O)n1[C@@H]1CCCNC1 (stereo in doubt) [Compound 27]",
    "pIC50": "< 5.00"
  },
  {
    "compound": "C[C@H](Nc1ncnc2cccnc12)c1nc2cccc(Cl)c2c(=O)n1C1CCCNCC1 (stereo partly drawn) [Compound 81]",
    "pIC50": "< 5.00"
  },
  {
    "compound": "CC(C)C[C@H](Nc1ncnc(N)c1C#N)c1nc2cccc(Cl)c2c(=O)n1N1CCNCC1 [Compound 74]",
    "pIC50": "< 5.00"
  }
]
